Items are presented alongside their recorded z-score.
Biological target: Metabotropic glutamate receptor 8 (Rattus norvegicus)
Test: mGluR8 Gi/Go-coupled signaling modulation – cell-based, rat, thallium flux, HTS, primary screen (AID 488969)
Conditions: HEK293 rat mGluR8, GIRK thallium flux, FluoZin2; at 10 µM; stronger effect = higher value; submaximal glutamate (EC20) added with thallium
The full ranking holds about 110,000 compounds; the median of “z-score” is about -0.1, and the highest 2% start at about 2. The sample as a whole holds a higher share of the highest values than the screen did.

{"columns": ["molecule", "study-target", "z-score"],
 "data": [
  ["CC(=O)Nc1ccccc1OCC(=O)c1ccc2c(c1)OCO2", "Metabotropic glutamate receptor 8 (Rattus norvegicus)", 2.07],
  ["CSc1ccc(/C=N/NC(=O)CNc2cccc3ccccc23)cc1", "Metabotropic glutamate receptor 8 (Rattus norvegicus)", 0.3],
  ["CC(C)C(=O)Nc1ccccc1C(=O)OCC(=O)c1ccc2c(c1)OCCO2", "Metabotropic glutamate receptor 8 (Rattus norvegicus)", -0.424],
  ["Cc1cc(-c2n[nH]c(=S)n2/N=C/c2ccc(C)s2)n[nH]1", "Metabotropic glutamate receptor 8 (Rattus norvegicus)", -0.0648],
  ["COc1ccccc1NC(=O)NCc1ccc2c(c1)OCO2", "Metabotropic glutamate receptor 8 (Rattus norvegicus)", 0.532],
  ["CCC(Cc1ccccc1)NC(=O)C1CCC(CNc2c(N3CCCC3)c(=O)c2=O)CC1 (stereo unspecified)", "Metabotropic glutamate receptor 8 (Rattus norvegicus)", 0.312]
]}

---

Target: Metabotropic glutamate receptor 8 (Rattus norvegicus)
Assay: mGluR8 Gi/Go-coupled signaling modulation – cell-based, rat, thallium flux, HTS, primary screen (AID 488969)
Conditions: HEK293 rat mGluR8, GIRK (G protein-gated inwardly rectifying potassium channel) thallium flux, FluoZin2; at 10 µM; stronger effect = higher value; submaximal glutamate (EC20) added with thallium
Over roughly 110,000 compounds, “z-score” has its median near -0.1; the highest 2% begin near 2. What follows is part of a selection rich in the highest values, with near analogues and random picks from the rest.
# thresholds on z-score define classes: 1 = under -0.2, 2 = from -0.2 up to 0.5, 3 = 0.5 and over

{"columns": ["molecule", "label-value"],
 "data": [
  ["CC(C)n1cc(NC(=O)c2cc(-c3ccccc3)on2)cn1", 3],
  ["CN(C)C(=O)CSc1cccc2cccnc12", 3],
  ["O=C(O)c1cc2c(ccc3ccccc32)[nH]1", 1],
  ["C[C@H](C(=O)C=[N+]=[N-])N1C(=O)c2ccccc2C1=O", 1],
  ["CN1CCN(CC(=O)N2c3ccccc3C(C)(c3ccccc3)CC2(C)C)CC1 (centres undefined)", 3],
  ["Cc1ccc(-n2c(N)c(C(=O)N3CCN(C)CC3)sc2=S)cc1", 3],
  ["COc1ccc(CSc2cccc3cccnc23)cc1[N+](=O)[O-]", 2],
  ["Cc1cc(C)n2nc(SCc3cc(=O)n4ccccc4n3)nc2n1", 2],
  ["COc1ccccc1C(O)Cc1nc2ccccc2n1C (centres undefined)", 1],
  ["CN1CCN(C(=O)c2sc(=S)n(-c3ccccc3)c2N)CC1", 3],
  ["CCOC(=O)N1CCN(Cc2nc(N)nc(Nc3ccccc3C)n2)CC1", 2],
  ["O=C(CSc1cccc2cccnc12)NCc1ccco1", 2],
  ["O=C(Nc1cccnc1)c1cc(-c2ccccc2)on1", 1],
  ["COc1cccc(-c2cc(C(=O)Nc3cnn(Cc4ccccc4C)c3)no2)c1", 2],
  ["CCCn1cc(NC(=O)c2cc(-c3ccccc3)on2)cn1", 3],
  ["O=C(Nc1ncc2c(n1)-c1ccccc1CC2)c1ccccc1", 1],
  ["CCc1nnc(NC(=O)c2cc(S(=O)(=O)N3CCN(c4ccccc4)CC3)ccc2Cl)s1", 1],
  ["Nc1c(C(=O)N2CCCCC2)sc(=S)n1-c1ccccc1", 2],
  ["O=C(CSc1cccc2cccnc12)OCC(=O)c1ccccc1", 2],
  ["O=C(NCCc1ccncc1)Nc1ccccc1", 2],
  ["CCOC(=O)CSc1cccc2cccnc12", 3],
  ["CC(=O)N1c2ccccc2C(C)(c2ccccc2)CC1(C)C (centres undefined)", 1],
  ["COc1ccc(/C(C)=N/NC(=O)c2ccc(CSc3cccc4cccnc34)cc2)cc1OC", 1]
]}
